Let's go through some recorded GI50 values for NCI-H23 together.
Give bare numbers, in µM.

Observe how each entry below is paired with its result.
compound="CC(=O)CCCCCCCCCCCCC[C@H](CC(=O)O)OC1OC(C)C(O)C(O)C1O (stereo in doubt)" measurement_label=GI50 display_unit=µM recorded_number=13.7
compound="CC1OC(O[C@H](CCCCCCCCCCCCC[C@@H](C)O)CC(=O)O)C(O)C(O)C1O (stereo in doubt)" measurement_label=GI50 display_unit=µM recorded_number=27.5
compound="CC1OC(OC2C(O[C@H](CCCCCCCCCCCCC[C@@H](C)O)CC(=O)O)OC(C)C(O)C2O)C(O)C(O)C1O (stereo partly shown)" measurement_label=GI50 display_unit=µM recorded_number=36.9

Could you now look at the following compound, please?
INPUT: Specify reported GI50 for the compound shown: COc1cccc2c1C(=O)c1c(O)c3c(c(O)c1C2=O)C[C@@](O)(C(=O)CO)C[C@@H]3O[C@H]1C[C@H](N)[C@H](O)[C@H](C)O1 [ADR, adriamycin, reference compound]
OUTPUT: 1.4

###

Give measured GI50 for each item. Keep answers brief.
tested on: NUGC-3
Your answer should be a number followed by the unit of measure.

Observe how each entry below is paired with its result.
compound="CC1OC(OC2C(O[C@H](CCCCCCCCCCCCC[C@@H](C)O)CC(=O)O)OC(C)C(O)C2O)C(O)C(O)C1O (stereo partly shown) [Compound 3]" measurement_label=GI50 result="32 µM"
compound="CC1OC(O[C@H](CCCCCCCCCCCCC[C@@H](C)O)CC(=O)O)C(O)C(O)C1O (stereo in doubt) [Compound 1]" measurement_label=GI50 result="30.6 µM"
compound="COc1cccc2c1C(=O)c1c(O)c3c(c(O)c1C2=O)C[C@@](O)(C(=O)CO)C[C@@H]3O[C@H]1C[C@H](N)[C@H](O)[C@H](C)O1 [ADR, adriamycin, reference compound]" measurement_label=GI50 result="1.5 µM"

Could you now look at the following compound, please?
INPUT: Specify reported GI50 for the compound shown: CC(=O)CCCCCCCCCCCCC[C@H](CC(=O)O)OC1OC(C)C(O)C(O)C1O (stereo in doubt) [Compound 2]
OUTPUT: 19.3 µM

###

test system: MDA-MB-231
Give measured GI50 for each item. Keep answers brief.
One number for each entry, in µM.

Observe how each entry below is paired with its result.
molecule="CC1OC(O[C@H](CCCCCCCCCCCCC[C@@H](C)O)CC(=O)O)C(O)C(O)C1O (stereo in doubt)" display_unit=µM recorded_number=30.6
molecule="COc1cccc2c1C(=O)c1c(O)c3c(c(O)c1C2=O)C[C@@](O)(C(=O)CO)C[C@@H]3O[C@H]1C[C@H](N)[C@H](O)[C@H](C)O1 [ADR, adriamycin, reference compound]" display_unit=µM recorded_number=1.5

Give me GI50 for each of these molecules, listed below.
1. CC1OC(OC2C(O[C@H](CCCCCCCCCCCCC[C@@H](C)O)CC(=O)O)OC(C)C(O)C2O)C(O)C(O)C1O (stereo partly shown)
2. CC(=O)CCCCCCCCCCCCC[C@H](CC(=O)O)OC1OC(C)C(O)C(O)C1O (stereo in doubt)

OUTPUT:
25.5
40.4
